Could you please report measured chemical recovery by SPE of plasma for the items listed next?
- Measurement protocol: chemical recovery by SPE of plasma after PDMS sampling; higher = better extraction
- Measurement setup: pooled human plasma; extraction method: HLB SPE of plasma after PES; equilibration time (d): 3
Supply the numeric figure in %, leaving out any unit text.

Given item "CS(=O)(=O)c1ccc(C(=O)C2C(=O)CCCC2=O)c(Cl)c1" , the value recorded as its chemical recovery by SPE of plasma is 59.9

Given item "Clc1ccc2c(c1)CCc1cccnc1C2=C1CCNCC1" , the value recorded as its chemical recovery by SPE of plasma is 4.32

Given item "CN(C)C(=O)Nc1ccc(Cl)c(Cl)c1" , the value recorded as its chemical recovery by SPE of plasma is 7.52

Given item "C[C@]12C=CC(=O)C=C1CC[C@H]1[C@@H]3C[C@@H](O)[C@](O)(C(=O)CO)[C@@]3(C)C[C@H](O)[C@@]12F" , the value recorded as its chemical recovery by SPE of plasma is 58.4

Given item CN1C(=O)C(O)N=C(c2ccccc2)c2cc(Cl)ccc21 (configuration not stated) , the value recorded as its chemical recovery by SPE of plasma is 27.9

Given item "CN1CCN(C)C1=O" , the value recorded as its chemical recovery by SPE of plasma is 4.29

Given item "O=C(O)c1ccccc1O" , the value recorded as its chemical recovery by SPE of plasma is 78.9

Given item CC(=O)OCC(=O)[C@@]12OC3(CCCC3)O[C@@H]1C[C@H]1[C@@H]3CCC4=CC(=O)C=C[C@]4(C)[C@@]3(F)[C@@H](O)C[C@@]12C [Amcinonide] , the value recorded as its chemical recovery by SPE of plasma is 1.48

Given item CCOC(=O)C(C)(C)Oc1ccc(Cl)cc1 [Clofibrate] , the value recorded as its chemical recovery by SPE of plasma is 0.676

Given item "Oc1ccc(Cl)cc1Cl" , the value recorded as its chemical recovery by SPE of plasma is 56.9

Given item "Cc1cccc(C)c1N(Cn1cccn1)C(=O)C(=O)O" , the value recorded as its chemical recovery by SPE of plasma is 63.4

Given item "Oc1ccc(Cl)cc1Cc1ccccc1" , the value recorded as its chemical recovery by SPE of plasma is 29.2

###

- Measurement protocol: chemical recovery from spiked human plasma; higher = better extraction
- Measurement setup: pooled human plasma; extraction method: solvent precipitation (ACN + hexane)
Could you please report measured chemical recovery for the items listed next?
Supply the numeric figure in %, leaving out any unit text.

Given item CCN(CC)C(=O)c1cccc(C(=O)O)c1 [DEET-carboxylic-acid] , the value recorded as its chemical recovery is 68.1

Given item Cc1cc(C2CC2)nc(Nc2ccccc2)n1 [Cyprodinil] , the value recorded as its chemical recovery is 69.9

Given item COc1cc(OC)nc(NC(=O)NS(=O)(=O)N(C)S(C)(=O)=O)n1 [Amidosulfuron] , the value recorded as its chemical recovery is 70.2

Given item c1ccc2c(c1)Cc1cc3ccccc3cc1-2 [Benzo(b)fluorene] , the value recorded as its chemical recovery is 69.1

Given item CC(C)(C#N)c1cc(Cn2cncn2)cc(C(C)(C)C#N)c1 [Anastrozole] , the value recorded as its chemical recovery is 69.1

Given item COc1ccc2c(c1)[C@]13CCCC[C@@H]1[C@H](C2)N(C)CC3 [Dextromethorphan] , the value recorded as its chemical recovery is 70.1

Given item CC(C)N1C(=O)c2cc(O)ccc2NS1(=O)=O [6-Hydroxybentazone] , the value recorded as its chemical recovery is 70.3

Given item O=C(Nc1ccccc1)Nc1ccccc1 [1,3-Diphenylurea] , the value recorded as its chemical recovery is 84.4

Given item O=[N+]([O-])/N=C1\NCCN1Cc1ccc(Cl)nc1 [Imidacloprid] , the value recorded as its chemical recovery is 77.5

Given item O=C(O)COc1nc(Cl)c(Cl)cc1Cl [Triclopyr] , the value recorded as its chemical recovery is 70.3

Given item CC(C)c1ccc(NC(=O)N(C)C)cc1 [Isoproturon] , the value recorded as its chemical recovery is 74.8

Given item c1ccc(-c2cccc(-c3ccccc3)c2)cc1 [m-Terphenyl] , the value recorded as its chemical recovery is 34.3

Given item O=C1C=C(N(Cc2ccc(Cl)nc2)CC(F)F)CO1 [Flupyradifurone] , the value recorded as its chemical recovery is 76.9

Given item CC1CCc2cc(F)cc3c(=O)c(C(=O)O)cn1c23 (configuration not stated) [Flumequine] , the value recorded as its chemical recovery is 72.1

Given item Nc1ccc(Cc2ccc(N)c(Cl)c2)cc1Cl [2,2'-dichloro-4,4'-methylenedianiline] , the value recorded as its chemical recovery is 71.3

Given item Cl[C@H]1[C@H](Cl)[C@@H](Cl)[C@@H](Cl)[C@H](Cl)[C@H]1Cl [gamma-HCH] , the value recorded as its chemical recovery is 26.2

Given item O=C(c1ccc(OCCN2CCCCC2)cc1)c1c(-c2ccc(O)cc2)sc2cc(O)ccc12 [Raloxifene] , the value recorded as its chemical recovery is 63.5

###

- Measurement protocol: chemical recovery from spiked human plasma; higher = better extraction
- Measurement setup: pooled human plasma; extraction method: solvent precipitation (ACN + hexane)
Could you please report measured chemical recovery for the items listed next?
Answer format reminder: number followed by unit.

Given item CCNc1nc(Cl)nc(NC(C)C)n1 [Atrazine] , the value recorded as its chemical recovery is 62.9%

Given item Brc1ccc(Oc2cc(Br)c(Br)cc2Br)c(Br)c1 [BDE99] , the value recorded as its chemical recovery is 4.89%

Given item NC(=O)N1c2ccccc2C=Cc2cc(O)ccc21 [2-Hydroxycarbamazepine] , the value recorded as its chemical recovery is 68.2%

Given item O=C1C2CC3C1C1(Cl)C(Cl)C4(Cl)C2C3C1(Cl)C4(Cl)Cl (configuration not stated) [Endrin ketone] , the value recorded as its chemical recovery is 15.3%

Given item CN1C(=O)C(O)N=C(c2ccccc2)c2cc(Cl)ccc21 (configuration not stated) [Temazepam] , the value recorded as its chemical recovery is 77.8%

Given item CC(C)c1cc(C(C)(C)c2ccc(O)c(C(C)C)c2)ccc1O [Bisphenol-G] , the value recorded as its chemical recovery is 39.5%

Given item CC(C)NC(=O)N1CC(=O)N(c2cc(Cl)cc(Cl)c2)C1=O [Iprodione] , the value recorded as its chemical recovery is 6.49%

Given item CCC1(c2ccccc2)C(=O)NCNC1=O [Primidone] , the value recorded as its chemical recovery is 76.5%

Given item COc1cc(OC)nc(NC(=O)NS(=O)(=O)c2ncccc2C(=O)N(C)C)n1 [Nicosulfuron] , the value recorded as its chemical recovery is 64.3%

Given item CC1=CC(=O)NS(=O)(=O)O1 [Acesulfame] , the value recorded as its chemical recovery is 93.4%

Given item CC1NC(C)(C)COC1(O)c1cccc(Cl)c1 [(S,S)-Hydroxybupropion] , the value recorded as its chemical recovery is 59.9%

Given item CC1CCN(CCCC(=O)c2ccc(F)cc2)CC1 [Melperon] , the value recorded as its chemical recovery is 61%

Given item CCOC(=O)c1ccc(N(C)C)cc1 [Ethyl 4-(dimethylamino)benzoate] , the value recorded as its chemical recovery is 60.4%

Given item CCCCCCCCCCCCN(C)C [N,N-Dimethyldodecylamine] , the value recorded as its chemical recovery is 78.3%

Given item CCCC(Cn1cncn1)c1ccc(Cl)cc1Cl (configuration not stated) [Penconazole] , the value recorded as its chemical recovery is 67.7%

Given item CNC(=O)O/N=C(\C)SC [Methomyl] , the value recorded as its chemical recovery is 75.8%

Given item CCOC(=O)C(C)(C)Oc1ccc(Cl)cc1 [Clofibrate] , the value recorded as its chemical recovery is 23%

###

- Measurement protocol: chemical recovery by SPE of plasma after PDMS sampling; higher = better extraction
- Measurement setup: pooled human plasma; extraction method: HLB SPE of plasma after PES; equilibration time (d): 6
Use Met when the recorded chemical recovery by SPE of plasma is no lower than 2%; use Not met when it is lower.

Is it the case that CC[C@H]1CCC[C@H](O[C@H]2CC[C@H](N(C)C)[C@@H](C)O2)[C@@H](C)C(=O)C2=C[C@@H]3[C@@H](C=C[C@@H]4C[C@@H](O[C@@H]5O[C@@H](C)[C@H](OC)[C@@H](OC)[C@H]5OC)C[C@@H]34)[C@@H]2CC(=O)O1 [Spinosyn A] has chemical recovery by SPE of plasma reaching or exceeding 2%?
Not met

Is it the case that CC(C)NCC(O)COc1ccc(COCCOC(C)C)cc1 (stereo not given) [Bisoprolol] has chemical recovery by SPE of plasma reaching or exceeding 2%?
Met

Is it the case that Cc1cc(C2CCCCC2)n(O)c(=O)c1 [Ciclopirox] has chemical recovery by SPE of plasma reaching or exceeding 2%?
Not met

Is it the case that CC(=O)Nc1ccc(S(=O)(=O)Nc2cc(C)on2)cc1 [Acetyl-sulfamethoxazole] has chemical recovery by SPE of plasma reaching or exceeding 2%?
Met

Is it the case that Cc1cccc(C)c1N(Cn1cccn1)C(=O)CS(=O)(=O)O [Metazachlor ESA] has chemical recovery by SPE of plasma reaching or exceeding 2%?
Met

Is it the case that O=C(O)c1ccccc1O [Salicylic acid] has chemical recovery by SPE of plasma reaching or exceeding 2%?
Met

Is it the case that COc1ccc(C(=O)c2ccccc2)c(O)c1 [Benzophenone-3] has chemical recovery by SPE of plasma reaching or exceeding 2%?
Not met

Is it the case that CCCCCCCCCCCC[N+](C)(C)[O-] [N,N-Dimethyldodecylamine N-oxide] has chemical recovery by SPE of plasma reaching or exceeding 2%?
Met

Is it the case that C[C@]12CCC(=O)C=C1CC[C@@H]1[C@@H]2CC[C@]2(C)C(=O)CC[C@@H]12 [4-Androstene-3,17-dione] has chemical recovery by SPE of plasma reaching or exceeding 2%?
Not met

Is it the case that C[C@]12C=CC(=O)C=C1CC[C@H]1[C@@H]3C[C@@H](O)[C@](O)(C(=O)CO)[C@@]3(C)C[C@H](O)[C@@]12F [Triamcinolone] has chemical recovery by SPE of plasma reaching or exceeding 2%?
Met

Is it the case that c1ccc(Nc2cccc3ccccc23)cc1 [N-Phenyl-1-naphthylamine] has chemical recovery by SPE of plasma reaching or exceeding 2%?
Not met

Is it the case that Clc1cc(Cl)c(-c2c(Cl)ccc(Cl)c2Cl)cc1Cl [PCB149] has chemical recovery by SPE of plasma reaching or exceeding 2%?
Not met

Is it the case that c1ccc2c(c1)[nH]c1cnccc12 [Norharmane] has chemical recovery by SPE of plasma reaching or exceeding 2%?
Not met

Is it the case that c1ccc2c(c1)Cc1cc3ccccc3cc1-2 [Benzo(b)fluorene] has chemical recovery by SPE of plasma reaching or exceeding 2%?
Met

Is it the case that O=[N+]([O-])c1ccc(O)cc1 [4-Nitrophenol] has chemical recovery by SPE of plasma reaching or exceeding 2%?
Met

Is it the case that COc1cc(OC)nc(NC(=O)NS(=O)(=O)N(C)S(C)(=O)=O)n1 [Amidosulfuron] has chemical recovery by SPE of plasma reaching or exceeding 2%?
Met

Is it the case that Oc1cc(Cl)ccc1Oc1ccc(Cl)cc1Cl [Triclosan] has chemical recovery by SPE of plasma reaching or exceeding 2%?
Met

Is it the case that Oc1ccc(Cl)cc1 [4-Chlorophenol] has chemical recovery by SPE of plasma reaching or exceeding 2%?
Met

Is it the case that O=C1Nc2ccc(Cl)cc2C(C#CC2CC2)(C(F)(F)F)O1 (stereo not given) [Efavirenz] has chemical recovery by SPE of plasma reaching or exceeding 2%?
Not met

Is it the case that CCCN(CCC)c1c([N+](=O)[O-])cc(S(N)(=O)=O)cc1[N+](=O)[O-] [Oryzalin] has chemical recovery by SPE of plasma reaching or exceeding 2%?
Met

Is it the case that NC(=O)N1c2ccccc2CC(O)c2ccccc21 (stereo not given) [10,11-Dihydro-10-hydroxycarbamazepine] has chemical recovery by SPE of plasma reaching or exceeding 2%?
Met

Is it the case that c1cc2cccc3c4cccc5cccc(c(c1)c23)c54 [Perylene] has chemical recovery by SPE of plasma reaching or exceeding 2%?
Not met

Is it the case that C1=Cc2ccccc2Nc2ccccc21 [Iminostilbene] has chemical recovery by SPE of plasma reaching or exceeding 2%?
Met

Is it the case that C[C@]12CCC(=O)C=C1CC[C@@H]1[C@@H]2CC[C@@]2(C)[C@H]1CC[C@]2(C)O [17alpha-Methyltestosterone] has chemical recovery by SPE of plasma reaching or exceeding 2%?
Met

Is it the case that Cc1ccc(-c2cc(C(F)(F)F)nn2-c2ccc(S(N)(=O)=O)cc2)cc1 [Celecoxib] has chemical recovery by SPE of plasma reaching or exceeding 2%?
Met
